Hello, the source for this data is patent US20260028391A1, in case you need it.

- Study system: RSV A fusion glycoprotein (F), virus of the neutralisation assays of Tables 54 and 57 (RSV A)
- Assay overview: cell-based or functional assay
Measured attribute: IC50, neutralization of RSVA (ng/mL)
Answers are plain numbers, in ng/mL.

**Q:** Any idea what its IC50, neutralization of RSVA is? The binder is MPK201-v4.1 (antibody, V domains shown) VH: QVQLVQSGAEVKKPGESLKISCQGSGYSFISYWIGWVRQKPGKGLEWMGIIYPFDSETKYSPSFQGHVTFSADKSINTAYVQWSSLRASDTAMYYCARFTFGLAVTTADVSGEGQAFEIWGQGTMVTVSS VL: EIVMMQSPATLSVSPGERATLSCRASQSVAGNLAWYQQRPGQAPRLLVYGASTRASGVPARFSGSGSETEFTLTISSLQSEDFAVYYCHHYSDWPQAFGQGTRLDIK
**A:** 4.35
